As shown below, each of these compounds has a reported Stability in AB White, 21-25° C. (content by LCMSMS) value.
- Experiment: Stability of cannabinoid and Vitamin E components of Beverage 1 (AB White) stored at 8° C. and 21-25° C., LCMSMS over 570 days
- Type: physicochemical
- Assay Setup: beverage stored at 21-25° C., day 0
Measured Attribute: Stability in AB White, 21-25° C. (content by LCMSMS)

> print(dat)
                                   compound       result
1  CCCCCc1cc(O)c2c(c1)OC(C)(CCC=C(C)C)C=C2 (stereo not drawn)  0.320 µg/mL
2  CCCc1cc(O)c2c(c1)OC(C)(C)[C@@H]1CCC(C)=C[C@@H]21 [THCV, delta-9-tetrahydrocannabivarin]    3.6 µg/mL
3  C=C(C)[C@@H]1CCC(C)=C[C@H]1c1c(O)cc(CCC)cc1O  0.150 µg/mL
4  C=C(C)[C@@H]1CCC(C)=C[C@H]1c1c(O)cc(CCCCC)c(C(=O)O)c1O   1.75 µg/mL
5  CCCCCc1cc2c(c(O)c1C(=O)O)[C@@H]1C=C(C)CC[C@H]1C(C)(C)O2 [D9 THCA, delta-9-tetrahydrocannabinolic acid]  0.950 µg/mL
6  CCCCCc1cc(O)c2c(c1)OC(C)(C)[C@@H]1CCC(C)=C[C@@H]21 [D9 THC, delta-9-tetrahydrocannabinol, reference compound]   12.2 µg/mL
7  CCCCCc1cc(O)c2c(c1)OC(C)(C)c1ccc(C)cc1-2   2.79 µg/mL
8  CCCCCc1cc(O)c2c(c1)OC1(C)CCC3C1C2C3(C)C (stereo not drawn)  0.550 µg/mL
9   CCCCCc1cc(O)c(C/C=C(\C)CCC=C(C)C)c(O)c1   4.87 µg/mL

* * *

- Assay type: physicochemical
- Assay Setup: stored at room temperature (21-25° C.), day 510
- Method: At each time period, 0.05 g of powder was dissolved in 10 ml-15 of ethanol, diluted to fall within the analytical range, and injected into the LCMSMS for analysis.
Measured Attribute: Stability in Powder Concentrate (content by LCMSMS)

> print(dat)
                                   compound             result
1  CCCCCc1cc(O)c2c(c1)OC(C)(CCC=C(C)C)C=C2 (stereo not drawn)  0.069 mg/g powder
2  C=C(C)[C@@H]1CCC(C)=C[C@H]1c1c(O)cc(CCCCC)c(C(=O)O)c1O  0.411 mg/g powder
3  CC(=O)Oc1c(C)c(C)c2c(c1C)CCC(C)(CCC[C@H](C)CCC[C@H](C)CCCC(C)C)O2 (stereo partly drawn) [α-Tocopheryl acetate]   2.15 mg/g powder
4  CCCCCc1cc2c(c(O)c1C(=O)O)[C@@H]1C=C(C)CC[C@H]1C(C)(C)O2 [D9 THCA, delta-9-tetrahydrocannabinolic acid]  0.154 mg/g powder
5  CCCc1cc(O)c2c(c1)OC(C)(C)[C@@H]1CCC(C)=C[C@@H]21 [THCV, delta-9-tetrahydrocannabivarin]  0.696 mg/g powder
6  CCCCCc1cc(O)c2c(c1)OC1(C)CCC3C1C2C3(C)C (stereo not drawn)  0.050 mg/g powder

* * *

- Experiment: Stability of cannabinoid and Vitamin E components of Beverage 1 (AB White) stored at 8° C. and 21-25° C., LCMSMS over 570 days
- Format: physicochemical
- Assay Setup: beverage stored at 21-25° C., day 570
As shown below, each of these molecules has a reported Stability in AB White, 21-25° C. (content by LCMSMS) value.
Measured Attribute: Stability in AB White, 21-25° C. (content by LCMSMS) (µg/mL)

> print(dat)
                                   molecule  numeric.result
1  C=C(C)[C@@H]1CCC(C)=C[C@H]1c1c(O)cc(CCC)cc1O           0.138
2  C=C(C)[C@@H]1CCC(C)=C[C@H]1c1c(O)cc(CCCCC)c(C(=O)O)c1O            1.61
3  CCCCCc1cc(O)c2c(c1)OC1(C)CCC3C1C2C3(C)C (stereo not shown)           0.505
4  CCCc1cc(O)c2c(c1)OC(C)(C)[C@@H]1CCC(C)=C[C@@H]21 [THCV, delta-9-tetrahydrocannabivarin]            3.30

* * *

- Experiment: Stability of cannabinoid and Vitamin E components of Beverage 1 (AB White) stored at 8° C. and 21-25° C., LCMSMS over 570 days
- Format: physicochemical
- Assay Setup: beverage stored at 8° C., day 25
Measured Attribute: Stability in AB White, 8° C. (content by LCMSMS) (µg/mL)

> print(dat)
                                   compound  unit.annotation  numeric.result
1  C=C(C)[C@@H]1CCC(C)=C[C@H]1c1c(O)cc(CCCCC)cc1O [CBD, cannabidiol, reference compound]            µg/mL           27.65
2  C=C(C)[C@@H]1CCC(C)=C[C@H]1c1c(O)cc(CCC)cc1O [CBDV, cannabidivarin]            µg/mL           0.149
3  CCCCCc1cc(O)c2c(c1)OC1(C)CCC3C1C2C3(C)C (stereo not drawn) [CBL, cannabicyclol]            µg/mL           0.540

* * *

- Experiment: Stability of cannabinoid and Vitamin E components of Beverage 1 (AB White) stored at 8° C. and 21-25° C., LCMSMS over 570 days
- Format: physicochemical
- Assay Setup: beverage stored at 8° C., day 240
Measured Attribute: Stability in AB White, 8° C. (content by LCMSMS) (µg/mL)

> print(dat)
                                    compound  numeric.result
 1  CCCCCc1cc(O)c2c(c1)OC(C)(C)[C@@H]1CCC(C)=C[C@@H]21 [D9 THC, delta-9-tetrahydrocannabinol, reference compound]           11.70
 2   CCCCCc1cc(O)c(C/C=C(\C)CCC=C(C)C)c(O)c1            4.69
 3  C=C(C)[C@@H]1CCC(C)=C[C@H]1c1c(O)cc(CCC)cc1O           0.145
 4  C=C(C)[C@@H]1CCC(C)=C[C@H]1c1c(O)cc(CCCCC)cc1O [CBD, cannabidiol, reference compound]           27.79
 5  CCCc1cc(O)c2c(c1)OC(C)(C)[C@@H]1CCC(C)=C[C@@H]21 [THCV, delta-9-tetrahydrocannabivarin]            3.56
 6  CCCCCc1cc(O)c2c(c1)OC1(C)CCC3C1C2C3(C)C (stereo not shown)           0.535
 7  CCCCCc1cc(O)c2c(c1)OC(C)(C)c1ccc(C)cc1-2            2.70
 8  CCCCCc1cc(O)c2c(c1)OC(C)(CCC=C(C)C)C=C2 (stereo not shown)           0.316
 9  CCCCCc1cc2c(c(O)c1C(=O)O)[C@@H]1C=C(C)CC[C@H]1C(C)(C)O2 [D9 THCA, delta-9-tetrahydrocannabinolic acid]           0.932
10  C=C(C)[C@@H]1CCC(C)=C[C@H]1c1c(O)cc(CCCCC)c(C(=O)O)c1O            1.70

* * *

- Format: physicochemical
- Assay Setup: stored at room temperature (21-25° C.), day 390
As shown below, each of these molecules has a reported Stability in Powder Concentrate (content by LCMSMS) value.
Measured Attribute: Stability in Powder Concentrate (content by LCMSMS) (mg/g powder)

> print(dat)
                                   molecule  unit.annotation  numeric.result
1  CCCCCc1cc(O)c2c(c1)OC(C)(C)[C@@H]1CCC(C)=C[C@@H]21 [D9 THC, delta-9-tetrahydrocannabinol, reference compound]      mg/g powder            2.48
2  Cc1c(C)c2c(c(C)c1O)CC[C@@](C)(CCC[C@H](C)CCC[C@H](C)CCCC(C)C)O2      mg/g powder            4.91
3  CCCCCc1cc(O)c2c(c1)OC(C)(CCC=C(C)C)C=C2 (stereo not drawn)      mg/g powder           0.068
4  CCCCCc1cc(O)c2c(c1)OC(C)(C)c1ccc(C)cc1-2      mg/g powder           0.479
5  CC(=O)Oc1c(C)c(C)c2c(c1C)CCC(C)(CCC[C@H](C)CCC[C@H](C)CCCC(C)C)O2 (stereo partly drawn) [α-Tocopheryl acetate]      mg/g powder            2.21
6  Cc1c(C)c2c(c(C)c1OC(=O)CCC(=O)O)CC[C@@](C)(CCC[C@H](C)CCC[C@H](C)CCCC(C)C)O2 [α-Tocopheryl succinate]      mg/g powder            1.87

Source listed as patent US20240415914A1.
